Listing of recorded kinase still bound, per cent of control by entry.
# Experimental Target: UniProtKB Q9UK32
# Sequence (Q9UK32 whole entry, looked up): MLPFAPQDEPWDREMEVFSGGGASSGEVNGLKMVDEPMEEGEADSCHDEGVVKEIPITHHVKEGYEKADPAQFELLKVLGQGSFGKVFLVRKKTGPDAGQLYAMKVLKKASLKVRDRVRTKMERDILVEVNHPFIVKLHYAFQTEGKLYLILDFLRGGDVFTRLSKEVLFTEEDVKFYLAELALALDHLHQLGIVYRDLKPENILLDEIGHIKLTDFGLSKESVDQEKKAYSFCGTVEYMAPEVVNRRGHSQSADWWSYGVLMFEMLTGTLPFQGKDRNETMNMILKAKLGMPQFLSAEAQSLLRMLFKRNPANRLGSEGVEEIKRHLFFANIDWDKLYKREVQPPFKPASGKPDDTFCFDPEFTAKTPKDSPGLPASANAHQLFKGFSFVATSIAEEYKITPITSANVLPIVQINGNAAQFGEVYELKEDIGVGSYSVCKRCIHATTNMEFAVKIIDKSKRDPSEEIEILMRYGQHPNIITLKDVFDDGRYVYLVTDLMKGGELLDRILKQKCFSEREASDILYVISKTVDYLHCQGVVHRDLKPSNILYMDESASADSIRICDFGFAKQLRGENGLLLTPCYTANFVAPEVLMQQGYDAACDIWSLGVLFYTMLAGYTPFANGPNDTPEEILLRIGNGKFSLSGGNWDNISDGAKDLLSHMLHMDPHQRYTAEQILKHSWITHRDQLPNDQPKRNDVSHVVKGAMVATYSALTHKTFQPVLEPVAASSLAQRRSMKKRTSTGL
# Test Description: KINOMEscan competition binding
# Condition Parameters: compound 10.0 µM
// units = %; emit number, no label

Consider the following illustrative entries.
INSERT INTO results (smiles_input, experimental_target, result_type, reading_unit, observed_result) VALUES
  ('Cn1cc(C2=C(c3ccc(Cl)cc3Cl)C(=O)NC2=O)c2ccccc21', 'UniProtKB Q9UK32', 'kinase still bound, per cent of control', '%', 75),
  ('Cc1cnc(-c2cnc(NCCNc3ccc(C#N)cn3)nc2-c2ccc(Cl)cc2Cl)[nH]1', 'UniProtKB Q9UK32', 'kinase still bound, per cent of control', '%', 89),
  ('O=C1Nc2cc(Br)ccc2/C1=C1/Nc2ccccc2/C1=N\O', 'UniProtKB Q9UK32', 'kinase still bound, per cent of control', '%', 51);

Read the next record carefully.
System UniProtKB Q9UK32. Read-out kinase still bound, per cent of control. Item COc1ccc(CNC(=O)Nc2ncc([N+](=O)[O-])s2)cc1 . Report value. 100
